- target-entity: factor D (Homo sapiens)
- Construct: made in house; host or cells: E. coli
- Sequence (P00746 26-253): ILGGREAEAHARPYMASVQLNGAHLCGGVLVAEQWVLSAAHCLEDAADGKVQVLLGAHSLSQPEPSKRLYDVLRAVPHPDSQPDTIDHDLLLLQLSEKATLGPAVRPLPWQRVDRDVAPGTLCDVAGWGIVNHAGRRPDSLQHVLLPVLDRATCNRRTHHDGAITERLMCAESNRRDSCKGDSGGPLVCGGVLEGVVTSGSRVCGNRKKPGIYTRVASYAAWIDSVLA
- assay-name: factor D inhibition assay of Biological Example 2
- Type: biochemical
pIC50: −log10 of the molar value.
Property: pIC50; scope: individual molecules

| molecule | pIC50 |
| --- | --- |
| NCc1cccc(-c2cc(COc3ccccc3CC(=O)O)cc(C(NC(=O)c3ccccc3)C(F)(F)F)c2)c1 (centres unmarked) | 8.40 |
| N[C@H](CO)c1cccc(-c2cc(F)cc(COc3ccccc3CC(=O)O)c2)c1 | 8.52 |
| C[C@@H](N)c1cccc(-c2cc(COc3ccccc3CC(=O)O)cc(N3CCCCC3)c2)c1F | 7.40 |
| CC(O)c1cc(COc2ccccc2CC(=O)O)cc(-c2cccc([C@H](C)N)c2F)c1 (some centres unmarked) | 7.64 |
| C[C@@H](N)c1cccc(-c2cc(COc3ccccc3CC(=O)O)cc(N3CCCC3)c2)c1F | 8.05 |
| C[C@@H](N)c1cccc(-c2cc(CO)cc(COc3ccccc3CC(=O)O)c2)c1 | 7.68 |
| NCc1cccc(-c2cc(N3CCN(c4ccccc4)CC3)cc(C(=O)Nc3ccccc3CC(=O)O)n2)c1 | 8.22 |
| CCC[C@@H](N)c1cccc(-c2cc(COc3ccccc3CC(=O)O)cc(NC[C@@H]3CCCO3)c2)c1F | 7.19 |
| CCC[C@@H](N)c1cccc(-c2cc(COc3ccccc3CC(=O)O)cc(N3CCCC3)c2)c1F | 6.83 |
| CCOc1cc(COc2ccccc2CC(=O)O)cc(-c2cccc([C@H](N)CO)c2)c1 | 8.10 |
| C[C@@H](N)c1cccc(-c2cc(COc3ccccc3CC(=O)O)cc(NCC3CCCO3)c2F)c1F (some centres unmarked) | 7.80 |
| COc1cccc(CC(=O)O)c1NC(=O)c1cccc(-c2cc(F)cc(CN)c2)c1 | 6.90 |
| O=C(O)Cc1ccccc1OCc1cccc(-c2cccc(C3CCCN3)c2)c1 (centres unmarked) | 5.54 |
| NC(c1ccccc1)c1cccc(-c2cccc(COc3ccccc3CC(=O)O)c2)c1 (centres unmarked) | 6.50 |
| C[C@@H](N)c1cccc(-c2cc(NCC3CC3)c3c(c2)C(Oc2ccccc2CC(=O)O)CCO3)c1F (some centres unmarked) | 7.85 |
| NCc1cccc(-c2cccc(OCc3ccccc3CC(=O)O)n2)c1 | 5.73 |
| Cn1nc(C2CC2)cc1Nc1cc(C(=O)Nc2ccccc2CC(=O)O)cc(-c2cc(F)cc(CN)c2)c1 | 7.66 |
| NCc1cccc(-c2cc(CNC(c3ccccc3)C(F)(F)F)cc(COc3ccccc3CC(=O)O)c2)c1 (centres unmarked) | 8.22 |
| C[C@@H](N)c1cccc(-c2ccnc(COc3ccccc3CC(=O)O)c2)c1 | 6.83 |
| NCc1cccc(-c2cc(COc3ccccc3CC(=O)O)cc3c2OCO3)c1 | 8.52 |
| NCc1cc(F)cc(-c2cccc(C(=O)Nc3ccccc3CC(=O)O)n2)c1 | 7.80 |
| NCc1cccc(-c2cc(COc3ccccc3CC(=O)O)cc(C3CC3)c2)c1 | 8.00 |
| CNC(CO)c1cccc(-c2cccc(COc3ccccc3CC(=O)O)c2)c1 (racemic) | 5.60 |
| N[C@@H](c1cccc(-c2cccc(COc3ccccc3CC(=O)O)c2)c1)C1CC1 | 5.97 |
| NCc1cc(F)cc(-c2nc(C(=O)Nc3ccccc3CC(=O)O)cs2)c1 | 7.21 |
| N[C@H](CO)c1cccc(-c2cc(COc3ccccc3CC(=O)O)cc(C(O)C(F)(F)F)c2)c1 (mixture of isomers) [116-G a)] | 8.22 |
| NCc1cccc(-c2cc(COc3ccccc3CC(=O)O)c(F)c(NCC3CCCO3)c2)c1 (racemic) | 8.40 |
| CNC(=O)c1cc(COc2cc(C(=O)Nc3ccccc3CC(=O)O)cc(-c3cc(F)cc(CN)c3)c2)ccn1 | 8.05 |
| C[C@@H](N)c1cccc(-c2cc(COc3ccccc3CC(=O)O)cc(N(C)CCF)c2)c1F | 7.62 |
| CN(Cc1cc(COc2ccccc2CC(=O)O)cc(-c2cccc(CN)c2)c1)CC(F)(F)F | 8.22 |
| NCc1cccc(-c2cc(COc3ccccc3CC(=O)O)cc(OC[C@H]3CCCO3)c2)c1F | 8.40 |
| NCc1cccc(-c2cc(COc3ccccc3CC(=O)O)cc(-c3ccn[nH]3)c2)c1 | 8.40 |
